- measured target: 5HT2C receptors (Homo sapiens, UniProt P28335)
- Sequence (P28335 33-458): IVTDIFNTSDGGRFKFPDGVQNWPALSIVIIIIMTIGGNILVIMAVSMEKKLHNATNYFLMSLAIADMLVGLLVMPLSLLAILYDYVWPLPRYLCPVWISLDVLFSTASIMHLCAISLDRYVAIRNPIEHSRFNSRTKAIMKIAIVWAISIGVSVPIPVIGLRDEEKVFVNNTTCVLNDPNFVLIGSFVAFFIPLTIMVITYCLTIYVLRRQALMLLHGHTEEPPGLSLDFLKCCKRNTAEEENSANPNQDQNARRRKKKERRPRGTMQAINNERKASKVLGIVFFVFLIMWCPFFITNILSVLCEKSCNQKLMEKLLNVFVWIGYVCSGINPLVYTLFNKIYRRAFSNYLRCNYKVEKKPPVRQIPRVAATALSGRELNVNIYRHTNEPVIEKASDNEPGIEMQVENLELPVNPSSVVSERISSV
- protocol notes: Human 5-HT2C functional assay in 1321N1 cells (intracellular calcium, FLIPR)
- Type: cell-based
- Set-up: expressed in transfected cells; host or cells: 1321N1 cells
- condition set: 1321N1 cells; percentage relative to the effect of serotonin; read-out: Emax (%), 5-HT2c Agonist Activity
- Procedure: (ii) Human 5-HT2C Functional Assay in 1321N1 Cells Functional activity was determined by testing the effect of the compounds on intracellular calcium levels in 1321N1 cells stably transfected with the human 5-HT2C receptor. […] Serial compound dilutions (final concentrations 10^−10 to 10^−5 M) were added to the cells either alone or in the presence of serotonin (10^−9 M) and the maximum calcium response was determined using a FLIPR instrument (Molecular Devices). […]
experimental endpoint: Emax (%)
Report only the number, with the unit % understood.

> print(dat)
                                   compound  experimental.endpoint  endpoint.value
1  Brc1ccc2c(c1)NCCC1CNCCN21 (centres unmarked)                   Emax            85.5
2       O=C1C[C@H]2CNCCN2c2cc(Cl)c(Cl)cc2N1                   Emax            99.5
3  O=C1CC2CNCCN2c2cc(C(F)(F)F)ccc2N1 (centres unmarked)                   Emax             118
4  O=C1CC2CNCCN2c2cc(/C=C/c3ccc(Cl)cc3)ccc2N1 (centres unmarked)                   Emax            96.5

Turning now to a further record.
// query Emax value for entry "O=C1C[C@H]2CNCCN2c2ccccc2N1"
90
